tested on: K-562 leukemia; assay: NCI tumour cell line growth inhibition, 48 h

molecule	TGI
O=CCCn1[nH]c(=O)ccc1=O	> 100 µM
C/C(=C/CC[C@](C)(OC1OC(CO)C(O)C(O)C1O)[C@H]1CC[C@]2(C)[C@@H]1CC[C@@H]1[C@@]3(C)CC[C@H](O)C(C)(C)[C@@H]3C[C@H](O)[C@]12CO)CO (stereo partly drawn)	> 100 µM
COc1ccc(Nc2ncc(I)c(NCCCNC(=O)C3CCC3)n2)cc1	> 100 µM
COC(=O)c1c(O)ccc2c1c1c(n2CCc2ccc(OC)c(OC)c2)C(=O)c2ccccc2C1=O	> 100 µM
C=CCCn1nc(-c2ccccc2)oc1=O	> 100 µM
S=C(NCCc1ccccn1)N/N=C(\c1ccccc1)c1ccccn1	> 100 µM
N=S(c1ccccc1[N+](=O)[O-])c1ccccc1[N+](=O)[O-]	7.29 µM
NC(=O)c1ncn(C2C=CC(CP(=O)(O)O)C2)c1N (stereo not drawn)	> 100 µM
CC(C)(C)c1cc(C[P+](c2ccccc2)(c2ccccc2)c2ccccc2)cc(C(C)(C)C)c1O	4.64 µM
Cc1cc(C)n(-c2nc(-n3nc(C)cc3C)nc(-n3nc(C)cc3C)n2)n1	> 100 µM
COc1ccc(C2c3ccc4ccccc4c3Oc3ncn(CCCn4ccnc4)c(=N)c32)cc1OC (stereo not drawn)	4.54 µM
O=S(=O)(CC(Cl)c1ccccc1)c1nc2ccccc2s1 (stereo not drawn)	7.43 µM
O=S(O)O.O=S(O)O.[Co].[NH2-].[NH2-].[NH2-].[NH2-]	> 100 µM
CCc1cccc(C(C)C)c1NC(=O)/C(=N\NC(N)=O)C(C(=O)OC)c1cnc2ccccc2n1 (stereo not drawn)	> 100 µM
Oc1ccc(Br)cc1C=Nc1c(NC2CCCCC2)oc2ccc(Br)cc12	29.2 µM
O=C1C(Cl)C(c2ccccc2Cl)N1n1cnc2ccccc2c1=O (stereo not drawn)	> 100 µM
COc1cccc(S(=O)(=O)NC2=NCCN2C(=S)SN2CCn3c2nsc3=S)c1	92.3 µM
c1cc(OCCN2CCCC2)ccc1CNc1ccc2nc(CCC3CCCCC3)[nH]c2c1	2.11 µM

----------
test system: A549 NSCLC; experiment: NCI tumour cell line growth inhibition, 48 h
outcome.measure: TGI

compound	measured.result
CCc1cccc(C(C)C)c1NC(=O)/C(=N\NC(N)=O)C(C(=O)OC)c1cnc2ccccc2n1 (centres undefined)	76.5 µM
CCCCCCCCCCCCc1ccc(S(=O)(=O)O)cc1.[Cu+2]	> 100 µM
COc1cc(C2c3cc4c(cc3OC(NNC(N)=S)C2C)OCO4)cc(OC)c1OC (centres undefined)	> 100 µM
CC(=O)NC1=NC(=O)/C(=C/c2ccccc2Cl)N1C	> 100 µM
COc1c(Sc2c(SCSc3cnc4ccccc4c3Sc3cnc4ccccc4c3OC)cnc3ccccc23)cnc2ccccc12	> 100 µM
O=c1[nH]c2nc3ccccc3c(=O)n2/c1=C/c1ccccc1	> 100 µM
C[n+]1c2ccccc2c(N=[N+]=[N-])c2ccccc21	> 10 µM
Cc1ccc(NC(=O)C2C3C=CC(O3)C2C(=O)O)cc1 (centres undefined)	> 100 µM
COc1ccc2cc3c4cc(OC)c(OC)cc4ccn3c2c1	> 100 µM
O=CN/C=C/c1ccccc1	> 100 µM
COc1cccc(S(=O)(=O)NC2=NCCN2C(=S)SN2CCn3c2nsc3=S)c1	> 100 µM
O=c1[nH]c(-c2ccc(Cl)c(Cl)c2)cn1-c1ccc(Cl)cc1	48 µM
CC(=O)NC(CCCNC(=O)N(C)N=O)C(=O)NCc1ccccc1 (centres undefined)	> 100 µM
COc1ccc(C)c2sc(N(Cc3cccnc3)C(=O)c3ccc(C#N)cc3)nc12	> 100 µM
Clc1ccc(-c2cnc3c(-c4ccnc(N5CCNCC5)c4)cnn3c2)cc1	3.69 µM
CCS1=C2C(=O)CC(C)(C)CC2=Nc2ccccc21 (centres undefined)	> 100 µM
CC[C@]12CN3CCc4c([nH]c5ccccc45)[C@@](C(=O)OC)(c4cc5c(cc4OC)N(C)[C@H]4[C@@](O)(C(=O)OC)[C@H](OC(C)=O)[C@]6(CC)C=CCN7CC[C@]54[C@@H]76)CC(C3)[C@H]1O2 (some centres undefined)	> 100 µM
CCOc1ccc(N(CC(=O)N2CC(=O)Nc3cc(C)c(C)cc32)C(C)=O)cc1	> 100 µM
CCN1/C(=C/C(C)=C/c2sc3ccc4ccccc4c3[n+]2CC)Sc2ccc3ccccc3c21	0.272 µM
C[C@]12CC[C@H]3[C@@H](CC=C4C[C@@H](O)CC[C@@]43C)[C@@H]1C/C(=C\c1ccncc1)[C@@H]2O	61.3 µM
C=C(CN(C)C)C(=O)c1ccccc1OC	> 100 µM
O=S(Cc1ccccc1)c1ccccc1Cn1cccc1 (centres undefined)	> 100 µM
N#Cc1c(-c2ccc([N+](=O)[O-])cc2)c2c([nH]c1=O)-c1ccccc1CCC2	> 100 µM
C[N+]1(C(CO)Cc2c[nH]c3ccccc23)Cc2ccccc2C1 (centres undefined)	> 100 µM
Oc1nc(N2CCOCC2)sc1/C=C1\C=Nc2ccccc21	> 100 µM
CCOC(=O)Cc1csc(NC(=O)C(OC(=O)c2ccc(Cl)cc2)c2ccccc2)n1 (centres undefined)	> 100 µM
O=C(O)CCC(NC(=O)c1ccc(Oc2nc3ccccc3nc2C(=O)O)cc1)C(=O)O (centres undefined)	> 100 µM
COc1ccc(OC2(c3cc(OC)ccc3OC)OC(=O)c3ccccc32)cc1 (centres undefined)	> 100 µM
Cc1[nH]c2ccccc2c1CO	> 100 µM
CCOC(=O)C(C)NC(=O)NC12CC3CC(CC(F)(C3)C1)C2 (centres undefined)	> 100 µM
CCCCCCOC(=O)CC1=C(C)/C(=C/c2[nH]c(-c3ccc[nH]3)cc2OC)N=C1C	1.26 µM
COc1cc2c3c(n(CCCN=[N+]=[N-])c(=O)c2cc1OC)-c1ccc(F)cc1C3=O	> 100 µM
O=S(=O)(CC(Cl)c1ccccc1)c1nc2ccccc2s1 (centres undefined)	43.1 µM
C[C@@H]1CC[C@@]2(C)OC(c3ccccc3)[C@H](CO)N2C1=O (some centres undefined)	> 100 µM
FC(F)(F)c1ccc2c(-c3cc[nH]c3)ccnc2c1	75 µM
CC(=O)NC(CCCCNCc1ccccc1)C(=O)NCc1ccccc1 (centres undefined)	> 100 µM
COCN1C(=O)[C@@H]2C[C@@H](O)CN2C(=O)c2ccccc21	> 100 µM
Cc1ccc(/C(=N/NS(=O)(=O)c2cc(C)c(Cl)cc2Cl)Sc2cc(Cl)c(C)cc2S(N)(=O)=O)cc1	> 100 µM
NC(=O)N/N=C(\CC1OC(=O)c2ccccc21)c1ccc([N+](=O)[O-])cc1 (centres undefined)	> 100 µM

----------
system: DU-145 prostate; assay: NCI tumour cell line growth inhibition, 48 h
Listing: TGI of selected compounds

compound	TGI
Cn1c(-c2ccccc2)cc(-c2ccc3c(c2)OCO3)c1-c1ccsc1	> 100 µM
O=c1c2ccccc2n2c(-c3ccccc3O)nnc2n1-c1ccccc1	> 100 µM
N=S(c1ccccc1[N+](=O)[O-])c1ccccc1[N+](=O)[O-]	7.38 µM
CCCCCCCCCCCCc1ccc(S(=O)(=O)O)cc1.[Cu+2]	> 100 µM
COc1cc2c3c(n(CCCN=[N+]=[N-])c(=O)c2cc1OC)-c1ccccc1C3=O	> 100 µM
O=C(Nc1ccc(Cl)c(C(F)(F)F)c1)Nc1ccc(-c2cccnc2)cc1N1CCC(CO)CC1	> 100 µM
CCOC(=O)c1ccc(N2NC(=O)/C(=C/c3ccc([N+](=O)[O-])o3)C2=O)cc1	32.3 µM
N#Cc1ccc(C2ON=C(c3ccccc3)N2C23CC4CC(CC(C4)C2)C3)cc1 (centres undefined)	> 10 µM
Cc1cccc2c(N)c3cccc(C(=O)NCC[N+](C)(C)Cc4ccccc4[N+](=O)[O-])c3nc12	> 100 µM
CCOC(=O)C1=C(C(=O)OCC)SC2(S1)C(C(=O)OCC)=C(C(=O)OCC)Sc1c2ssc1=O	2.2 µM
NC(=O)N/N=C\CC(O)(C(F)(F)Cl)C(F)(F)Cl	> 10 µM
O=C(/C=C/c1ccc([N+](=O)[O-])cc1)N1CCN(CCOC(c2ccc(F)cc2)c2ccc(F)cc2)CC1	> 100 µM
CN1CCN(C)C1c1ccc(C2N(C)CCN2C)cc1	> 100 µM
COc1ccccc1NC1Oc2cc3c(cc2C(c2cc(OC)c(OC)c(OC)c2)C1C)OCO3 (centres undefined)	> 100 µM
OCC1OC(N2C=C(c3nc4ccccc4s3)C3C=CC=CC32)C(O)C(O)C1O (centres undefined)	> 50 µM
COC(=O)[C@H](Cc1cn(C)cn1)NC(=O)[C@H](CC(C)C)NC(=O)Nc1cc(C(F)(F)F)cc(C(F)(F)F)c1	> 10 µM
COc1cc(OC)c(C(=O)/C=C/c2ccc(C#N)cc2)c(OC)c1	6.27 µM
Cn1cc(NC(=O)Nc2cc(C(=O)Nc3cc(C(=O)Nc4ccc5cc(S(=O)(=O)O)cc(S(=O)(=O)O)c5c4)n(C)c3)n(C)c2)cc1C(=O)Nc1cc(C(=O)Nc2ccc3cc(S(=O)(=O)O)cc(S(=O)(=O)O)c3c2)n(C)c1	> 100 µM
Cc1ncc(C(=O)Nc2ccc(CN3CCN(C)CC3)c(C(F)(F)F)c2)cc1C#Cc1cnc(N)c2ccc(C#N)cc12	2.34 µM
